pIC50: recorded values
biological target: T1, adrenomedullin receptors in the lungs of dogs (dog, UniProt A0A8I3NWR4 23-462; A0A8I3MWA8 233-365); test: competition: displacement of iodine-labelled hAM from dog lungs
T1 construct: also called AM1 (CRLR+RAMP2) receptor
T1 sequence (chain, as listed by the source, chain 1 of 2): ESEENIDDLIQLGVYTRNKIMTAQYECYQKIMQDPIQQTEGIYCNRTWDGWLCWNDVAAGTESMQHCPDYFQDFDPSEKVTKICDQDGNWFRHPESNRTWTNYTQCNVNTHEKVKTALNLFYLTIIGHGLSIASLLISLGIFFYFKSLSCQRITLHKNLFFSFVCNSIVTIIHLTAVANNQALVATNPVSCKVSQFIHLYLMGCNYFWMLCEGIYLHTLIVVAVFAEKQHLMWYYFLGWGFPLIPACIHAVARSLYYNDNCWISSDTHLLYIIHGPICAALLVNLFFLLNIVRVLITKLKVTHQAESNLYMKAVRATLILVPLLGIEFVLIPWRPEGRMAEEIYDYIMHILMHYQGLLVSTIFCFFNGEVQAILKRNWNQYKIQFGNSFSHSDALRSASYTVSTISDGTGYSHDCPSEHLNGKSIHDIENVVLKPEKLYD
T1 sequence (chain, as listed by the source, chain 2 of 2): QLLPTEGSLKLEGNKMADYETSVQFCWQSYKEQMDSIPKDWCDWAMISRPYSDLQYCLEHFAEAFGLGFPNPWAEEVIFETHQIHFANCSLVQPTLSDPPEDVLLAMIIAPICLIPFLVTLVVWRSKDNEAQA
Positions of bridges follow the written chain, without caps; N, C: chain ends. No end group written: not given here.
Scale: negative log10 of molar concentration, which is what pIC50 denotes.

Supply recorded pIC50 for QVQNLSHRLWQLMGPAGRQDSAPVDPSSPHSY (peptide, UniProt Q7Z4H4 116-147, looked up, ends and bridges not checked, range 16-47; Numbering 16-47 is that of the mature AM2 peptide, not of the precursor entry) [hAM2(16-47)] here.
6.01

Complete the entry with pIC50 for TVQKLAHQIYQFTDKDKDNVAPRSKISPQGY-NH2 (also called C-terminal AM fragment) [hAM(22-52)]
6.09

Answer with the recorded pIC50 of human adrenomedullin hAM(1-52), cyclic (disulfide 16-21, also called hAM (cyclic); cyclic hAM) peptide: YRQSMNNFQGLRSFGCRFGTCTVQKLAHQIYQFTDKDKDNVAPRSKISPQGY-NH2 only.
10.26

// Input: SFGCRFGTCTVQKLAHQIYQFTDKDKDNVAPRSKISPQGY-NH2 (ends and bridges not checked) [hAM(13-52)] . Output its pIC50 only.
7.47

Write down pIC50 measured for item linear human adrenomedullin hAM(1-52) (cysteine pairing not given here, also called hAM linear; linear hAM) peptide: YRQSMNNFQGLRSFGCRFGTCTVQKLAHQIYQFTDKDKDNVAPRSKISPQGY-NH2
8.15

Entry TQAQLLRVGCVLGTCQVQNLSHRLWQLMGPAGRQDSAPVDPSSPHSY (peptide, UniProt Q7Z4H4 101-147, looked up) [hAM2] needs its pIC50 filled in; supply it.
6.32

Dear colleague, please send me the reported pIC50 for N-terminal acetylated human adrenomedullin (ends and bridges not checked, also called N-Ac hAM; N-terminal acetylated AM) peptide: Ac-YRQSMNNFQGLRSFGCRFGTCTVQKLAHQIYQFTDKDKDNVAPRSKISPQGY-NH2 when you can.
10.39
